Biological target: T1, IL13Rα Protein, Human, Recombinant, His Tag (human IL13Rα1) (human, UniProt P78552 22-343)
T1 chain: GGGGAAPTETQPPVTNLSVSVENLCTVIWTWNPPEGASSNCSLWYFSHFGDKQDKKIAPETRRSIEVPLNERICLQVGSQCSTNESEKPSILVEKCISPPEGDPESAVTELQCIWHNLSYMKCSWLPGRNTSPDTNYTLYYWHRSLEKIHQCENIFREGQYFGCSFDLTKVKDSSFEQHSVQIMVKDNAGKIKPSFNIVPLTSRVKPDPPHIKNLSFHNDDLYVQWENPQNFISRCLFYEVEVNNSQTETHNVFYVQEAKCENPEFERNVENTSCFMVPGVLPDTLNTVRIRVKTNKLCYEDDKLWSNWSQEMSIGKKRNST
Assay: SPR; kinetic
property-measured: pKd
By convention, pKd is the negative base-10 log of a molar concentration.

A5 (protein) PGPVPPSTALIELIEELINITQNQKAPLCNGSMVWSINLTAGMYCAALESLINVSGCSAIEKTQRMLSGFCPHKVSAGQFSSLHVKGSKIEVAQFVKDLLHHLRALMREGQFN :: 8.53
B2 (protein) PGPVPPSTALRELIEELINITQNQKAPLCNGSMVWSINLTAGMYCAALESLINVSGCSAIEKTQRMLSGFCPHKVSAGQFSSLHVTGSKIEVAQFVKDLLYHLRALFREGQFN :: 9.56
A11 (protein) PGPVPPSTAVRELIEELINITQNQKAPLCNGSMVWSINLTAGMYCAALESLINVSGCSAIEKTQRMLSGFCPHKVSAGQFSSLHVRSSKIEVAQFVKDLLFHLRTLFREGQFN :: 10.08

// next item, pKd requested
pKd reported for this binder B4 (protein) PGPVPPSTALSELIEELINITQNQKAPLCNGSMVWSINLTAGMYCAALESLINVSGCSAIEKTQRMLSGFCPHKVSAGQFSSLHVKGSMIEVAQFVKDLLYHLRTLFREGQFN : 7.74
